Target: p53 Y220C (Homo sapiens, UniProt P04637, Y220C)
Experiment: Luciferase Reporter Assay (Luc), p53 response element, NClH1299 cells with inducible p53 Y220C
Type: cell-based
Conditions: luciferase reporter, NClH1299 inducible p53 Y220C, 6 hour; read-out: Luc P53 Y220C AC50
Method: Luciferase Reporter Assay Protocol The cells were then used for p53 reporter assay. 5,000 cells were seeded in each well of 384 plate and cultured in 0.5 ug/mL doxycycline (D3072; Sigma) containing medium for 24 hours before compound treatment. […] The luciferase activity was immediately measured with PheraStar microplate reader.
# AC50 per entry

Worked set:
{"compound": "COc1cc(S(C)(=O)=O)ccc1NCC#Cc1nc2c(N[C@@H]3CCNC[C@@H]3F)cccn2c1CC(F)(F)F [Example 8]", "AC50": "750 to 1500 nM"}
{"compound": "CNC(=O)c1ccc(NCC#Cc2nc3c(N[C@@H]4CCN(C)C[C@@H]4F)cccn3c2NC)c(OC)c1 [Example 25]", "AC50": "> 3000 nM"}
{"compound": "CNC(=O)c1ccc(NCC#Cc2nc3c(N[C@@H]4CCN(C)C[C@@H]4F)cccn3c2CC(F)(F)F)c(Cl)c1 [Example 55]", "AC50": "750 to 1500 nM"}
{"compound": "COc1ccc(C(=O)N(C)C)cc1NCC#Cc1nc2c(N[C@@H]3CCN(C)C[C@@H]3F)cccn2c1SC(F)(F)F [Example 143]", "AC50": "< 750 nM"}
{"compound": "COc1cc(C(=O)N(C)C)ccc1NCC#Cc1nc2c(N[C@@H]3CCN(C)C[C@@H]3F)cccn2c1SC(F)(F)F [Example 88]", "AC50": "< 750 nM"}

The record that follows has no AC50 shown yet.
Inquiry: Name the recorded AC50 for COc1cc(C(=O)NCCN(C)C)ccc1NCC#Cc1nc2c(N[C@@H]3CCOC[C@@H]3F)cccn2c1SC(F)(F)F [Example 221] .
Reply text: < 750 nM

----------
target: p53 Y220C mutant protein (amino acid residues 94-293) (Homo sapiens, UniProt P04637, Y220C); construct: p53 Y220C mutant protein (amino acid residues 94-293); test: Surface Plasmon Resonance (SPR) assay, Kd_kinetic; format: binding; conditions: SPR, kinetic KD, p53 Y220C; read-out: SPR P53 Y220C KD kinetic
measured_quantity: Kd

{"smiles_representation": "COc1cc(S(=O)(=O)C2CC2)ccc1NCC#Cc1nc2c(N[C@@H]3CCN(C)C[C@@H]3F)cccn2c1SC(F)(F)F", "Kd": "< 10 nM"}
{"smiles_representation": "CNC(=O)c1ccc(OC)c(NCC#Cc2cc3c(N[C@@H]4CCNC[C@@H]4F)cccn3c2SC(F)(F)F)c1", "Kd": "< 10 nM"}
{"smiles_representation": "CNC(=O)c1cnc(NCC#Cc2nc3c(N[C@@H]4CCN(C)C[C@@H]4F)cccn3c2SC(F)(F)F)n1C", "Kd": "10 to 100 nM"}
{"smiles_representation": "COc1cc(S(N)(=O)=O)ccc1NCC#Cc1nc2c(N[C@@H]3CCN(C)C[C@@H]3F)cccn2c1CC(F)(F)F", "Kd": "10 to 100 nM"}
{"smiles_representation": "CNC(=O)c1ccc(NCC#Cc2nc3c(N[C@@H]4CCN(C)C[C@@H]4F)cccn3c2CC(F)(F)F)c(OCCOC)c1", "Kd": "< 10 nM"}
{"smiles_representation": "CNC(=O)c1ccc(NCC#Cc2nc3c(NC4CCN(C)CC4)cc(N)cn3c2CC(F)(F)F)c(OC)c1", "Kd": "10 to 100 nM"}

Inquiry: Suppose we examine the compound C[C@@H](O)C#Cc1nc2c(N[C@@H]3CCN(C)C[C@@H]3F)cccn2c1CC(F)(F)F ; what Kd value has been reported?
Reply text: 10 to 100 nM

Inquiry: Recorded Kd for COc1ccc(C(N)=O)cc1NCC#Cc1nc2c(N[C@@H]3CCN(C)C[C@@H]3F)cccn2c1SC(F)(F)F , please?
Reply text: < 10 nM

Inquiry: Sample COc1ncc(C(N)=O)cc1NCC#Cc1nc2c(N[C@@H]3CCN(C)C[C@@H]3F)cccn2c1SC(F)(F)F — what was its Kd?
Reply text: < 10 nM

Inquiry: Query (compound): CNC(=O)c1cc(OC)c(NCC#Cc2nc3c(N[C@@H]4CCN(C)C[C@@H]4F)cccn3c2SC(F)(F)F)cn1 ; field requested: Kd
Reply text: < 10 nM

Data origin: patent US20260374766A1
